List of survival values.
assay: compounds altering viability of human ES cells (AID 493140); conditions: human embryonic stem cell survival screen; stronger effect = higher value;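 note: cells exposed to compounds for four days before counting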
Format: numeric value only, no unit, no commentary.

Prompt: # lookup: survival of `CC(=O)CC(=O)[C@@]1(O)CC[C@H]2[C@@H]3C=C(C)C4=CC(=O)CC[C@@H]4[C@H]3CC[C@@]21C`
Completion: 10.6

Prompt: Now this one: `O=C1NCCN1c1ncc([N+](=O)[O-])s1`
Completion: 3.92

Prompt: Now this one: CO[C@@H]1[C@@H](OC2OC(C)C(OC3CC(C)(O)C(OC(=O)CC(C)C)C(C)O3)C(N(C)C)C2O)[C@@H](CC=O)C[C@@H](C)[C@@H](O)/C=C/C=C/C[C@@H](C)OC(=O)C[C@H]1OC(C)=O (stereo not given in full)
Completion: 16.8

Prompt: Now this one: CC1O[C@H](O[C@]2(O[C@H]3CC[C@@]4(C)C(=CC[C@H]5[C@@H]6C[C@H]7[C@H]([C@H](C)[C@H]8CC[C@H](C)CN87)[C@@]6(C)CC[C@@H]54)C3)C[C@@H](O[C@@H]3OC(CO)[C@@H](O)[C@@H](O)C3O)[C@@H](O)C(CO)O2)C(O)[C@@H](O)[C@H]1O (stereo not given in full)
Completion: 4.89

Prompt: Now this one: CC[C@@H]1OC(=O)[C@H](C)[C@H](O[C@H]2C[C@@](C)(OC)[C@@H](O)[C@H](C)O2)[C@@H](C)[C@@H](O[C@@H]2O[C@H](C)C[C@H](N(C)C)[C@H]2O)C(C)(O)C[C@@H](C)[C@@H]2NC(COCCOC)OC([C@H]2C)[C@]1(C)O (stereo not given in full)
Completion: 4.33

---

experiment: growth inhibition, single agents and combos, ICB984, cell-based, cisplatin or BGB combos, synergistic combos for chromothripsis tumors (AID 1671451); conditions: ICB984 medulloblastoma cells, drug combinations, cisplatin combo, at 0.5 µM, stronger effect = higher value;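 note: cells exposed for 96 hours before readout; 0% = vehicle DMSO and 100% = killing by high DMSO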
Each entry gets false (0) if its inhibition stays under -40%, and true (1) if its inhibition is -40% or above.

# Compound, Assigned label
rows = [
    ("CC(=O)C1(O)Cc2c(O)c3c(c(O)c2C(OC2CC(N)C(O)C(C)O2)C1)C(=O)c1ccccc1C3=O (centres undefined)", "false (0)"),
]

Prompt: Confirm if inhibition reported for the compound `Cc1cc(C=CC#N)cc(C)c1Nc1ccnc(Nc2ccc(C#N)cc2)n1` is -40% or above.
Completion: true (1)

Prompt: Now this one: `COc1ccc(-c2nc(-c3cc(C(F)(F)F)cc(C(F)(F)F)c3)n(Cc3ccc(C(N)=O)cc3)c2-c2ccc(OC)cc2)cc1`
Completion: true (1)

Prompt: Now this one: `O=C(O)c1cc2cccc([N+](=O)[O-])c2[nH]1`
Completion: false (0)

Prompt: Now this one: `COc1ccccc1S(=O)(=O)Nc1ccc2c(c1)CN(C)C(=O)N2`
Completion: true (1)

Prompt: Now this one: O=c1ccn(C2CC(O)C(CO)O2)c(=O)[nH]1 (centres undefined)
Completion: true (1)

Prompt: Now this one: `C[C@@H]1COCCN1c1cc(C2(S(C)(=O)=O)CC2)nc(-c2cccc3[nH]ccc23)n1`
Completion: true (1)

Prompt: Now this one: `Cn1cnc2[nH]c(=O)[nH]c(=O)c21`
Completion: true (1)

Prompt: Now this one: CC(C)OC(=O)[C@H](C)NP(=O)(OC[C@H]1O[C@@H](n2ccc(=O)[nH]c2=O)C(C)(F)[C@@H]1O)Oc1ccccc1 (some centres undefined)
Completion: false (0)
